experiment: WST-1 cell cytotoxicity assay in Jurkat cells; type: cell-based; conditions: human, Jurkat cells, WST-1, 48 h, mean ± SD, Table 1; read-out: CC50 Jurkat cells
QUANTITY NAME: CC50 at 48 h

Measured CC50 at 48 h, COc1ccc(N=Nc2ccc3oc(=O)c(C(=O)Nc4ccc(OC)cc4)cc3c2)cc1 : 30.3 µM

----------
tested on: Jurkat cells; experiment: WST-1 cell cytotoxicity assay in Jurkat cells; assay type: cell-based; settings: WST-1, 48 h, mean ± SD, Table 1; read-out: CC50 Jurkat cells
QUANTITY NAME: log10(CC50) (log10 of the value in µM)
Hi team, quick reminder: these entries are log10 of CC50 (µM).

Study these solved cases before continuing.
C/C(=N\NC(=O)CCSCCC(=O)N/N=C(\C)c1ccccc1)c1ccccc1 [CH-6] = 2.01
COc1c(C(=O)Nc2ccc(C3=NCCN3)cc2)cccc1C(=O)Nc1ccc(C2=NCCN2)cc1 [CH-2] = 1.98
Cc1ccccc1NC(=O)C(=O)CC(=O)c1sc(Nc2ccccc2[N+](=O)[O-])nc1C [CH-1] = 2.12

What the record says about O=c1c(/C=C/c2c(O)ccc3ccccc23)nnc2sc(-c3cccc([N+](=O)[O-])c3)nn12 [CH-5] : log10(CC50) is 1.03

molecule COc1cc(-c2ccc(NC(=O)CSC(N)=O)c(OC)c2)ccc1NC(=O)CSC(N)=O [CH-3] , log10(CC50) observed: 2.33

----------
assay: WST-1 cell cytotoxicity assay in HEK293 cells; type: cell-based; details: human, HEK293 cells, WST-1, 48 h; read-out: CC50 HEK293 cells (tolerance)
QUANTITY NAME: CC50 at 48 h

CC50 at 48 h measured on COc1ccc(N=Nc2ccc3oc(=O)c(C(=O)Nc4ccc(OC)cc4)cc3c2)cc1 = > 20 µM

----------
test: WST-1 cell cytotoxicity assay in Jurkat cells; type: cell-based; settings: human, Jurkat cells, WST-1, 48 h; read-out: CC50 Jurkat cells (tolerance)
QUANTITY NAME: CC50 at 48 h

Consider COc1ccc(N=Nc2ccc3oc(=O)c(C(=O)Nc4ccc(OC)cc4)cc3c2)cc1 . Its measured CC50 at 48 h is > 20 µM

----------
Test system: HEK293 cells
Experiment: WST-1 cell cytotoxicity assay in HEK293 cells
Assay type: cell-based
Details: WST-1, 48 h, mean ± SD, Table 1; read-out: CC50 293 cells
Procedure: The WST-1 cytotoxicity assay evaluated cytotoxicity in effector cells (Jurkat cells) (Fig. 2A) and target cells (HEK293 cells) (Fig. 2B). […] These groups were treated with increasing concentrations of anti-PD-1 neutralizing antibody (0, 0.1, 1 and 10 µg/mL) and luminescence intensity was determined after treatments. Figure 2 In vitro screening of leading compounds. […] The activity of luciferase was determined as an indicator of cell activation. […] 49.35 % (9, 3 and 5 uncertain) are best readings. […]
# note: exactly 50 µM is not below, so it is f; use t for CC50 strictly under it

COc1cc(-c2ccc(NC(=O)CSC(N)=O)c(OC)c2)ccc1NC(=O)CSC(N)=O = f

Strictly below 50 µM: is that where CC50 of COc1c(C(=O)Nc2ccc(C3=NCCN3)cc2)cccc1C(=O)Nc1ccc(C2=NCCN2)cc1 sits?
f

Determine whether this molecule shows CC50 lower than 50 µM (ties excluded): C/C(=N\NC(=O)CCSCCC(=O)N/N=C(\C)c1ccccc1)c1ccccc1
f

State whether 50 µM exceeds CC50 recorded for O=c1c(/C=C/c2c(O)ccc3ccccc23)nnc2sc(-c3cccc([N+](=O)[O-])c3)nn12 .
t

In plain terms, does Cc1ccccc1NC(=O)C(=O)CC(=O)c1sc(Nc2ccccc2[N+](=O)[O-])nc1C come in under 50 µM for CC50?
t
